What solubility thermodynamic was measured for each of the following?
Experiment: physchem
Conditions: phosphate buffer, pH 9.9
Description: Thermodynamic solubility in 50 mM aqueous phosphate buffer of pH 9.9 at 22.5 degC by HPLC analysis
# number only, unit mM dropped from output

Prompt: I'd like to know its solubility thermodynamic. The compound in question is CN(C)CCC1(Cc2ccc(C(C)(C)C)cc2)COC1
Completion: 15

Prompt: I'd like to know its solubility thermodynamic. The compound in question is c1cc2c(cc1CN1CC3(COC3)C1)OCO2
Completion: 100

Prompt: I'd like to know its solubility thermodynamic. The compound in question is c1cc2c(cc1CN1CCCCC1)OCO2
Completion: 2.1

Prompt: I'd like to know its solubility thermodynamic. The compound in question is CC1(C)CCN(Cc2ccc3c(c2)OCO3)CC1
Completion: 0.89

Prompt: I'd like to know its solubility thermodynamic. The compound in question is c1cc2c(cc1CN1CCCC13COC3)OCO2
Completion: 8.5

Prompt: I'd like to know its solubility thermodynamic. The compound in question is O=C1CCN(Cc2ccc3c(c2)OCO3)C1
Completion: 19

Prompt: I'd like to know its solubility thermodynamic. The compound in question is c1cc2c(cc1CN1CCCC3(COC3)C1)OCO2
Completion: 7.7

Prompt: I'd like to know its solubility thermodynamic. The compound in question is O=C1CCCN1Cc1ccc2c(c1)OCO2
Completion: 6.8

Prompt: I'd like to know its solubility thermodynamic. The compound in question is c1cc2c(cc1CN1CCOCC1)OCO2
Completion: 36

Prompt: I'd like to know its solubility thermodynamic. The compound in question is CN(C)CCCCc1ccc(C2COC2)cc1
Completion: 17

Prompt: I'd like to know its solubility thermodynamic. The compound in question is CC1(C)CN(Cc2ccc3c(c2)OCO3)C1
Completion: 1.3

Prompt: I'd like to know its solubility thermodynamic. The compound in question is c1cc2c(cc1CN1CCC13COC3)OCO2
Completion: 6

Prompt: I'd like to know its solubility thermodynamic. The compound in question is CC1(C)CCN(Cc2ccc3c(c2)OCO3)C1
Completion: 0.17
